Biological target: CCK-B receptors (CHO-CCK) (Homo sapiens, UniProt P32239)
Construct: expressed in transfected cells; host or cells: CHO (CHO-CCK model cells)
Sequence (P32239 1-447): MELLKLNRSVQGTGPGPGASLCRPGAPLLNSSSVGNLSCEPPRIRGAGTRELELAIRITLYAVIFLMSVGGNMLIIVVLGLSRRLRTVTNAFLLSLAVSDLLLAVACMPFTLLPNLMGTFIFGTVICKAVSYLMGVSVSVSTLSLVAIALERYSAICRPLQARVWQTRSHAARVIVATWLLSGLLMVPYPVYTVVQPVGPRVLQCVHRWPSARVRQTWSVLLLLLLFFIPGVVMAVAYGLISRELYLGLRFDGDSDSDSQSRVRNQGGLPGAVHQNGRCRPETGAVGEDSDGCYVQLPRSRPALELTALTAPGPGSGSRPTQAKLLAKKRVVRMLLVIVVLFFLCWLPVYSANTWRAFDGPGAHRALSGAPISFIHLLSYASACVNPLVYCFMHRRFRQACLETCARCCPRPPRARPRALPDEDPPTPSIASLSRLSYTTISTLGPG
Experiment: Calcium flux (Fluo-8) antagonist test on CHO-CCK model cells in presence of CCK8
Type: cell-based
Details: in presence of 10 nM CCK8
Where a SMILES comes first, the peptide text is derived from it. [ ]: non-standard residue; d: D form. The star is where a group is joined. sY = N[C@@H](Cc1ccc(OS(=O)(=O)O)cc1)C(=O)O; Phe(3-Br) = N[C@@H](Cc1cccc(Br)c1)C(=O)O; dNMeW = CN[C@H](Cc1c[nH]c2ccccc12)C(=O)O; Fmoc = O=C(OCC1c2ccccc2-c2ccccc21)*; Ahp(2) = CCCCC[C@H](N)C(=O)O
reported property: EC50 (nM)
# output: bare number, implied unit nM

Recorded results for 8 compounds are shown here.
- compound: "CCCC[C@H](NC(=O)[C@@H](Cc1c[nH]c2ccccc12)N(C)C(=O)CNC(=O)OCC1c2ccccc2-c2ccccc21)C(=O)N[C@@H](CC(=O)O)C(=O)N[C@@H](Cc1cccc(Br)c1)C(N)=O"
  EC50, nM: 1610
- compound: "CSCC[C@H](NC(=O)[C@@H](Cc1cc2ccccc2[nH]1)NC(=O)[C@@]1(O)C[C@@H](O)[C@H](NC(C)=O)C([C@@H](O)[C@@H](O)CO)O1)C(=O)N[C@@H](CC(=O)O)C(=O)N[C@@H](Cc1cccc(Br)c1)C(N)=O (some centres unmarked)"
  EC50, nM: 41.9
- compound: "CCCC[C@H](NC(=O)[C@@H](Cc1cn(C)c2ccccc12)NC(C)=O)C(=O)N[C@@H](CC(=O)O)C(=O)N[C@@H](Cc1cn(C)c2ccccc12)C(N)=O"
  EC50, nM: 3280
- compound: "CSCC[C@H](NC(=O)[C@H](Cc1ccc(OS(=O)(=O)O)cc1)NC(=O)[C@H](CC(=O)O)NC(C)=O)C(=O)NCC(=O)N[C@@H](Cc1c[nH]c2ccccc12)C(N)=O [HT-216, Ac-Asp-Tyr(SO3H)-Met-Gly-Trp-NH2] (Ac-D[sY]MGW-NH2)"
  EC50, nM: 1440
- compound: "CSCC[C@H](NC(=O)[C@@H](Cc1c[nH]c2ccccc12)NC(=O)CNC(=O)[C@H](Cc1ccc(O)cc1)NC(=O)[C@H](CC(N)=O)NC(=O)[C@H](CCCCN)NC(=O)[C@@H](NC(=O)[C@H](C)NC(=O)[C@H](CC(N)=O)NC(=O)[C@@H](NC(=O)[C@H](Cc1c[nH]cn1)NC(=O)CNC(=O)[C@H](CO)NC(=O)[C@H](CC(N)=O)NC(=O)[C@H](C)NC(=O)[C@H](Cc1ccc(O)cc1)NC(C)=O)C(C)C)C(C)C)C(=O)N[C@@H](CC(=O)O)C(=O)N[C@@H](Cc1cccc(Br)c1)C(N)=O [HT-218] (Ac-YANSGHVNAVKNYG[dW]MD[Phe(3-Br)]-NH2)"
  EC50, nM: 680
- compound: "CCCCC[C@H](NC(=O)[C@@H](Cc1c[nH]c2ccccc12)NC(C)=O)C(=O)N[C@@H](CC(=O)O)C(=O)N[C@@H](Cc1cccc(Br)c1)C(N)=O [HT-257, Ac-D-Trp-Pa-Asp-Phe(3-Br)-NH2] (Ac-[dW][Ahp(2)]D[Phe(3-Br)]-NH2)"
  EC50, nM: 132
- compound: "CCCC[C@H](NC(=O)[C@@H](Cc1cn(C)c2ccccc12)NC(C)=O)C(=O)N[C@@H](CCC(=O)O)C(=O)N[C@@H](Cc1c(C)[nH]c2ccccc12)C(N)=O"
  EC50, nM: 2130
- compound: "CCCC[C@H](NC(=O)[C@H](Cc1c[nH]c2ccccc12)NC(C)=O)C(=O)N[C@@H](CCC(=O)O)C(=O)N[C@@H](Cc1c(C)[nH]c2ccccc12)C(N)=O"
  EC50, nM: 1310

Any idea what its EC50 is? The compound is CCCC[C@H](NC(=O)[C@@H](Cc1cn(C)c2ccccc12)NC(C)=O)C(=O)N[C@@H](CC(=O)O)C(=O)N[C@@H](Cc1c(C)[nH]c2ccccc12)C(N)=O 3650

Subsequent entry: CC[C@H](C)[C@H](NC(=O)[C@H](CCC(=O)O)NC(=O)[C@H](CC(N)=O)NC(=O)[C@@H](NC(=O)[C@H](CC(C)C)NC(=O)[C@H](CCC(=O)O)NC(=O)[C@H](CO)NC(=O)[C@H](CCC(=O)O)NC(C)=O)[C@@H](C)O)C(=O)N1CCC[C@H]1C(=O)N[C@@H](C)C(=O)N[C@@H](CCC(=O)O)C(=O)N[C@H](Cc1c[nH]c2ccccc12)C(=O)N[C@@H](CCSC)C(=O)N[C@@H](CC(=O)O)C(=O)N[C@@H](Cc1cccc(Br)c1)C(N)=O [HT-219] (Ac-ESELTNEIPAE[dW]MD[Phe(3-Br)]-NH2) 2580

Queued: CCCC[C@H](NC(=O)[C@H](Cc1c[nH]c2ccccc12)NC(C)=O)C(=O)N[C@@H](CC(=O)O)C(=O)N[C@@H](Cc1c[nH]c2ccccc12)C(N)=O 475

Same question for CCCC[C@H](NC(=O)[C@@H](Cc1cn(C)c2ccccc12)NC(C)=O)C(=O)N[C@@H](CCC(=O)O)C(=O)N[C@@H](Cc1cccc(Br)c1)C(N)=O please. 1410

Same read-out for CCCCC[C@H](NC(=O)[C@@H](Cc1c[nH]c2ccccc12)N(C)C(=O)OCC1c2ccccc2-c2ccccc21)C(=O)N[C@@H](CC(=O)OC)C(=O)N[C@@H](Cc1cccc(Br)c1)C(N)=O [HT-254] (Fmoc-[dNMeW][Ahp(2)]D(OMe)[Phe(3-Br)]-NH2) ? 1040

Entry to check: CCCC[C@H](NC(=O)[C@@H](Cc1c[nH]c2ccccc12)N(C)C(=O)CN(C)C(=O)OCC1c2ccccc2-c2ccccc21)C(=O)N[C@@H](CC(=O)O)C(=O)N[C@@H](Cc1cccc(Br)c1)C(N)=O 1030
